Reported Percutaneous Absorption Testing, 24 Hours values for the following compounds.
# ASSAY COMMENT: Percutaneous absorption testing (percent of applied dose that penetrated past the stratum corneum)
# EXPERIMENTAL CONDITIONS: 24 h

>  <COMPOUND>
CC(=O)CCCCn1c(=O)c2c(ncn2C)n(C)c1=O [Pentoxifylline]

>  <MEASURED>
53%

$$$$
>  <COMPOUND>
O=C(O)Cc1ccccc1Nc1c(Cl)cccc1Cl [Diclofenac]

>  <MEASURED>
7%

$$$$

// returns reported Percutaneous Absorption Testing, 24 Hours for input CN(C)CCC=C1c2ccccc2C=Cc2ccccc21 [Cyclobenzaprine] 7%

Name the recorded Percutaneous Absorption Testing, 24 Hours for CCCCN1CCCCC1C(=O)Nc1c(C)cccc1C (centres unmarked) [Bupivacaine] . 3%

Fill blank: measured Percutaneous Absorption Testing, 24 Hours of the compound NCC(CC(=O)O)c1ccc(Cl)cc1 (centres unmarked) [Baclofen] is ____. 4%

###

# ASSAY COMMENT: Percutaneous absorption testing (percent of applied dose that penetrated past the stratum corneum)
# EXPERIMENTAL CONDITIONS: 2 h
Listed compounds paired with reported Percutaneous Absorption Testing, 2 Hours
Give a bare numeral; the unit % is implied.

Guide cases for Percutaneous Absorption Testing, 2 Hours, answers given:
>  <COMPOUND>
O=C(O)Cc1ccccc1Nc1c(Cl)cccc1Cl

>  <MEASURED>
0

$$$$
>  <COMPOUND>
CCCCN1CCCCC1C(=O)Nc1c(C)cccc1C (centres unmarked)

>  <MEASURED>
0

$$$$
>  <COMPOUND>
CN(C)CCC=C1c2ccccc2C=Cc2ccccc21

>  <MEASURED>
0

$$$$

Could you share which Percutaneous Absorption Testing, 2 Hours value was measured for NCC(CC(=O)O)c1ccc(Cl)cc1 (centres unmarked) ? 0

Given the entry CC(=O)CCCCn1c(=O)c2c(ncn2C)n(C)c1=O , report its measured Percutaneous Absorption Testing, 2 Hours. 3

###

# ASSAY COMMENT: Percutaneous absorption testing (percent of applied dose that penetrated past the stratum corneum)
# EXPERIMENTAL CONDITIONS: 12 h
As shown below, each of these molecules has a reported Percutaneous Absorption Testing, 12 Hours value.
The reply should be a number in %, with the unit left off.

>  <MOLECULE>
CC(=O)CCCCn1c(=O)c2c(ncn2C)n(C)c1=O

>  <MEASURED>
34

$$$$
>  <MOLECULE>
O=C(O)Cc1ccccc1Nc1c(Cl)cccc1Cl

>  <MEASURED>
4

$$$$
>  <MOLECULE>
NCC(CC(=O)O)c1ccc(Cl)cc1 (centres unmarked)

>  <MEASURED>
3

$$$$

Need Percutaneous Absorption Testing, 12 Hours of CN(C)CCC=C1c2ccccc2C=Cc2ccccc21 , thanks. 5

Return reported Percutaneous Absorption Testing, 12 Hours; argument: CCCCN1CCCCC1C(=O)Nc1c(C)cccc1C (centres unmarked) 2

###

# ASSAY COMMENT: Percutaneous absorption testing (percent of applied dose that penetrated past the stratum corneum)
# EXPERIMENTAL CONDITIONS: 32 h
Please assign N whenever Percutaneous Absorption Testing, 32 Hours is at or above 10%, and Y whenever it is below.

Example results:
>  <MOLECULE>
CCCCN1CCCCC1C(=O)Nc1c(C)cccc1C (centres unmarked)

>  <CLASS>
Y

$$$$
>  <MOLECULE>
CC(=O)CCCCn1c(=O)c2c(ncn2C)n(C)c1=O

>  <CLASS>
N

$$$$
>  <MOLECULE>
NCC(CC(=O)O)c1ccc(Cl)cc1 (centres unmarked)

>  <CLASS>
Y

$$$$

Alright, here's another molecule for you.
Just wondering, is Percutaneous Absorption Testing, 32 Hours of CN(C)CCC=C1c2ccccc2C=Cc2ccccc21 below 10%? Y
